experiment: NCI Yeast Anticancer Drug Screen. Data for the mgt1 strain (AID 153); settings: S. cerevisiae mgt1 mutant growth inhibition; at 11.0 µM; stronger effect = higher value
This is part of a sample that, as a whole, favours compounds with a hit. Of some 79,000 tested, about 15% had one in any assay.
endpoint-name: growth inhibition (%)
Use % as the unit, but write only the number.

Indicate the recorded growth inhibition value for this compound: O=[N+]([O-])CC(SCc1ccccc1)c1ccc2c(c1)OCO2 (stereo not drawn)
47

Indicate the recorded growth inhibition value for this compound: CC(=O)OC1CCC2(C)C(=CCC3C4CCC5(OC6CC(C)CN(C(C)=O)C6C5C)C(C)=C4C(=O)C32)C1 (stereo not drawn)
61

Indicate the recorded growth inhibition value for this compound: CCCCCCCCCCCCCCCCCCOCC(O)COP(=O)(O)OCC1OC(n2cc(F)c(=O)[nH]c2=O)CC1O (stereo not drawn)
64

Indicate the recorded growth inhibition value for this compound: CC(C)c1cc(C(C)C)c(O)c(C([O-])[O-])c1.CC(C)c1cc(C(C)C)c(O)c(C([O-])[O-])c1.CC(C)c1cc(C(C)C)c(O)c(C([OH2+])[OH2+])c1.CC(C)c1cc(C(C)C)c(O)c(C([OH2+])[OH2+])c1.[Cu+2].[Cu+2].[OH3+].[OH3+]
18

Indicate the recorded growth inhibition value for this compound: CC1(Cl)CC(O)C2(CC1Br)C1(C)OC1C1OC1(Br)C2(C)C (stereo not drawn)
-1

Indicate the recorded growth inhibition value for this compound: COC1=CC(=O)C2C(C1=O)C(c1ccc(Cl)cc1)[C@@H]2C (stereo partly drawn)
99

Indicate the recorded growth inhibition value for this compound: O=Cc1cccc2ccc3ccccc3c12
-3

Indicate the recorded growth inhibition value for this compound: Oc1ccc2ccccc2c1C(c1ccc(Cl)cc1)c1c(O)ccc2ccccc12
-14

This collection of values is drawn from PubChem BioAssay (NCI).
